# Assayed System: AKT (Homo sapiens, UniProt P31749)
# Sequence (P31749 whole entry): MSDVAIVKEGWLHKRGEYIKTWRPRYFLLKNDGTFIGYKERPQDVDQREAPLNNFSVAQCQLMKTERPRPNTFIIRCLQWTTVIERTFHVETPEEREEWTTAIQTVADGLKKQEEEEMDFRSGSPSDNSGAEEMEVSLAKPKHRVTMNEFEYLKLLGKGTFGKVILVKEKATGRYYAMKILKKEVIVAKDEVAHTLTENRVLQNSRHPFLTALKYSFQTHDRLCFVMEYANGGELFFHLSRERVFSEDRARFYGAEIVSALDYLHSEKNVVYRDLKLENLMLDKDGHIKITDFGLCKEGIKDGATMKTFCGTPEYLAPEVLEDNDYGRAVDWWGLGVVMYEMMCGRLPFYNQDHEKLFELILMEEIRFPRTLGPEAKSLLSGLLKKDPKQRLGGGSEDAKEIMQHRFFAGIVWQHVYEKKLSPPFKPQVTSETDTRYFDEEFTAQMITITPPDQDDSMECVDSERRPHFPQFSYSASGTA
# Test Description: RBC HotSpot kinase assay (33P-ATP, P81 filter-binding), AKT
# Assay type: biochemical
# Recorded Conditions: Table 28, biochemical kinase assay; read-out: AKT IC50
pIC50: −log10 of the molar value.
Measurement Label: pIC50

Illustrative cases are given below, each with its answer.
In [3]: df
Out[3]:
                                   compound  measured_result
0  O[C@]1(c2ccc(-c3ccnc4[nH]cc(F)c34)cc2Cl)[C@@H]2CC[C@H]1CNC2             5.76
1  Cc1cc(-c2ccnc3[nH]cc(F)c23)cc(F)c1[C@@]1(O)[C@H](C)CN(C2CCS(=O)(=O)CC2)C[C@@H]1C             6.43
2  Cc1nc(-c2ccnc3[nH]ccc23)ccc1C1(O)CCN(C)CC1             5.10
3  Cc1nc(-c2ccnc3[nH]cc(F)c23)ccc1C1(O)[C@H](C)CN(C(=O)CN)C[C@@H]1C (stereo partly shown)             5.77
4  CC1CC(O)(c2ccc(-c3ccnc4[nH]cc(F)c34)cc2Cl)CC(C)N1 (stereo not shown)             5.72

[I] Fc1c[nH]c2nccc(-c3ccc(C4(C(F)(F)F)CCNCC4)cc3)c12
[II] CC(C)(N)c1ccc(-c2ccnc3[nH]cc(Br)c23)cc1
[III] C[C@@H]1CN(C(=O)[C@@H](C)N)C[C@H](C)C1(O)c1c(F)cc(-c2ccnc3[nH]cc(F)c23)cc1F (stereo partly shown)
[IV] NCc1ccc(-c2ccnc3[nH]cc(Cl)c23)cc1
Task: Ascending by pIC50, please. Form entry: labels listed in requested order.
Output: III, II, IV, I
(III: 6.16, II: 6.48, IV: 6.78, I: 7.74)

[a] Cc1cc(-c2ccnc3[nH]cc(C)c23)cc(F)c1[C@@]1(O)[C@H](C)CN(C(=O)CN)C[C@@H]1C
[b] c1cc(-c2ccc3c(c2)CNC3)c2cc[nH]c2n1
[c] Cc1cc(-c2ccnc3[nH]cc(-c4cccnc4)c23)cc(F)c1[C@@]1(O)[C@H](C)CN(C(=O)CN)C[C@@H]1C
Task: Sort these compounds on pIC50 so the largest reading comes first. Give your ranking as a list of the labels in the requested order.
Output: a, b, c
(a: 6.60, b: 6.29, c: 5.85)

[a] COc1ccc(-c2c[nH]c3nccc(-c4ccc(CN)cc4)c23)cc1
[b] CCc1cc(-c2ccnc3[nH]cc(F)c23)ccc1[C@@]1(O)[C@H](C)CN(C2CCS(=O)(=O)CC2)C[C@@H]1C
Task: Compare pIC50: is it lower for a or for b ? To answer, give the label that identifies your chosen option.
Output: a
(a: 5.88, b: 7.51)

###

# Assayed System: LATS1 (Homo sapiens, UniProt O95835)
# Sequence (O95835 whole entry): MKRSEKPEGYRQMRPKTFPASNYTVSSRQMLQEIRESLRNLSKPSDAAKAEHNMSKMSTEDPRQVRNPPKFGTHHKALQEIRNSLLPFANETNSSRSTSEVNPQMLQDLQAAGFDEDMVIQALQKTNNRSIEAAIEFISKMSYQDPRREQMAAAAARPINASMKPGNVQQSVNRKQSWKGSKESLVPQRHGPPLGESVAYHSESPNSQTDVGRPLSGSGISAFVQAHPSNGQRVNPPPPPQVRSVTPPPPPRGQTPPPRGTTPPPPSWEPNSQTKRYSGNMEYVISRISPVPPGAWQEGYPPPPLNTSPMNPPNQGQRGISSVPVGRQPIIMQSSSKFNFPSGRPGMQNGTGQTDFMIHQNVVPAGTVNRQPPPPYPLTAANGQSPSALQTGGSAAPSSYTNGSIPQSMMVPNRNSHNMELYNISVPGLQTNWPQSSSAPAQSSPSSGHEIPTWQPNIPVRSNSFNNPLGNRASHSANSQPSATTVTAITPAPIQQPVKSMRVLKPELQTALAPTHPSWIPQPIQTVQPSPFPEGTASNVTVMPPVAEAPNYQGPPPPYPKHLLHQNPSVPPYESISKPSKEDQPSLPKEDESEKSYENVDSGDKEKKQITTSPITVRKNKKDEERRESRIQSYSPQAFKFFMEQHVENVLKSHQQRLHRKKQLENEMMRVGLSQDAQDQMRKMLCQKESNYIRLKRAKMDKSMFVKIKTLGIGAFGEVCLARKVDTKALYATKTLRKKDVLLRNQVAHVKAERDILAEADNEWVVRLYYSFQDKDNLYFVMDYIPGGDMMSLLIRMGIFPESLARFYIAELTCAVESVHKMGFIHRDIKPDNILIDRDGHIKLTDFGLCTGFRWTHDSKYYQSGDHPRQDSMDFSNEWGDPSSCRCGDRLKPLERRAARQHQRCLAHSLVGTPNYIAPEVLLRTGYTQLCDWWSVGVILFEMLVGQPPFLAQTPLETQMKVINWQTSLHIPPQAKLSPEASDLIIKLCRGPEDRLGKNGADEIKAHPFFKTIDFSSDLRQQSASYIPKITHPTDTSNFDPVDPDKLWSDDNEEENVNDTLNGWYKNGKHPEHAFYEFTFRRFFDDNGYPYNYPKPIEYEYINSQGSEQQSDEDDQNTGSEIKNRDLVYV
# Test Description: RBC HotSpot kinase assay (33P-ATP, P81 filter-binding), LATS1
# Assay type: biochemical
# Recorded Conditions: Table 28, biochemical kinase assay; read-out: LATS1 IC50
pIC50: −log10 of the molar value.
Measurement Label: pIC50

>>> df
                    smiles_notation  measured_result
0  Cc1c[nH]c2nccc(-c3ccc(CN)cc3)c12             7.89

[P] NCc1ccc(-c2ccnc3[nH]cc(-c4cccc(C(F)(F)F)c4)c23)cc1
[Q] Cc1cc(-c2ccnc3[nH]cc(F)c23)cc(F)c1C1(O)CC2(CNC2)C1
[R] NCc1ccc(-c2ccnc3[nH]cc(-c4ccccc4F)c23)cc1
Task: Sort the compounds on pIC50; start with the lowest figure. Return value: ordered labels per request.
Output: P, R, Q

###

# Assayed System: LATS1 Kinase-NanoLuc fusion in HEK-293 cells (Homo sapiens, UniProt O95835)
# Construct: host or cells: HEK-293
# Sequence (O95835 whole entry, the tested form may be a part): as the sequence (O95835 whole entry) above
# Test Description: NanoBRET target engagement assay in transfected HEK-293 cells, LATS1
# Assay type: cell-based
# Recorded Conditions: cellular
pIC50: −log10 of the molar value.
Measurement Label: pIC50

Compound	pIC50
Cc1cc(-c2ccnc3[nH]cc(C#N)c23)cc(F)c1[C@@]1(O)[C@H](C)CN(C2CCS(=O)(=O)CC2)C[C@@H]1C [Compound 2002]	7.52
Cc1cc(-c2ccnc3[nH]cc(C#N)c23)ccc1[C@@]1(O)[C@H](C)CN(C2CCS(=O)(=O)CC2)C[C@@H]1C [Compound 2003]	7.82
Cc1cc(-c2ccnc3[nH]cc(C#N)c23)ccc1[C@@]1(O)[C@H](C)CN(C(=O)CN)C[C@@H]1C [Compound 2005]	7.33

[P] Cc1cc(-c2ccnc3[nH]cc(C#N)c23)cc(F)c1[C@@]1(O)[C@H](C)CN(C(=O)CN)C[C@@H]1C [Compound 2004]
[Q] Cc1cc(-c2ccnc3[nH]cc(C#N)c23)cc(F)c1[C@@]1(O)[C@H](C)CNC[C@@H]1C [Compound 2024]
[R] Cc1cc(-c2ccnc3[nH]cc(C#N)c23)cc(F)c1[C@@]1(O)[C@H](C)CN(C(=O)CNCC(F)(F)F)C[C@@H]1C [Compound 2014]
Task: List items by pIC50 in falling order. A ranking is expressed here by listing the labels in the requested order.
Output: P, Q, R

###

# Assayed System: AKT (Homo sapiens, UniProt P31749)
# Test Description: RBC HotSpot kinase assay (33P-ATP, P81 filter-binding), AKT
# Assay type: biochemical
# Recorded Conditions: biochemical kinase inhibition; read-out: AKT IC50
Measurement Label: IC50 (nM)

Compound	Measurement Label	Measured Result
Cc1cc(-c2ccnc3[nH]cc(C#N)c23)cc(F)c1[C@@]1(O)[C@H](C)CN(C(=O)C(C)(C)N)C[C@@H]1C	IC50	610
Cc1cc(-c2ccnc3[nH]cc(C#N)c23)cc(F)c1[C@@]1(O)[C@H](C)CN(C(=O)C(N)C(F)(F)F)C[C@@H]1C (stereo partly shown)	IC50	2050
Cc1cc(-c2ccnc3[nH]cc(C#N)c23)ccc1[C@@]1(O)[C@H](C)CN(C(=O)[C@@H](C)N)C[C@@H]1C	IC50	89.4
Cc1cc(-c2ccnc3[nH]cc(C#N)c23)cc(F)c1[C@@]1(O)[C@H](C)CN(C(=O)C(N)C(F)F)C[C@@H]1C (stereo partly shown)	IC50	1220
N#Cc1c[nH]c2nccc(-c3ccc(C4(O)CCNCC4)cc3)c12	IC50	278
CN[C@@H](CO)C(=O)N1C[C@@H](C)[C@](O)(c2c(C)cc(-c3ccnc4[nH]cc(C#N)c34)cc2F)[C@@H](C)C1	IC50	244
Cc1cc(-c2ccnc3[nH]cc(C#N)c23)ccc1[C@@]1(O)[C@H](C)CN(C(=O)[C@@H](CO)N(C)C)C[C@@H]1C	IC50	251
Cc1cc(-c2ccnc3[nH]cc(C#N)c23)cc(F)c1[C@@]1(O)[C@H](C)CN(C(=O)[C@H](CO)N(C)C)C[C@@H]1C	IC50	388

[1] Cc1cc(-c2ccnc3[nH]cc(C#N)c23)cc(F)c1[C@@]1(O)[C@H](C)CN(C(=O)[C@@H](C)N)C[C@@H]1C
[2] Cc1cc(-c2ccnc3[nH]cc(C#N)c23)cc(F)c1[C@@]1(O)[C@H](C)CN(C(=O)[C@H](C)N)C[C@@H]1C
Task: Sorting ascending by IC50, which comes first: 1 or 2 ? Choose, then provide that item's label.
Output: 1

[a] Cc1cc(-c2ccnc3[nH]cc(C#N)c23)cc(F)c1[C@@]1(O)[C@H](C)CN(C(=O)[C@H](N)CO)C[C@@H]1C (single isomer, unassigned) [Compound 2006]
[b] Cc1cc(-c2ccnc3[nH]cc(C#N)c23)ccc1[C@@]1(O)[C@H](C)CN(C(=O)[C@H](N)CO)C[C@@H]1C
[c] Cc1cc(-c2ccnc3[nH]cc(C#N)c23)cc(F)c1[C@@]1(O)[C@H](C)CN(C2CCS(=O)(=O)CC2)C[C@@H]1C
[d] Cc1cc(-c2ccnc3[nH]cc(C#N)c23)ccc1[C@@]1(O)[C@H](C)CN(C2CCS(=O)(=O)CC2)C[C@@H]1C
[e] Cc1cc(-c2ccnc3[nH]cc(C#N)c23)cc(F)c1[C@@]1(O)[C@H](C)CNC[C@@H]1C
Task: Ordering criterion: IC50; begin with the maximum. Answer format: list of labels, ordered as asked.
Output: e, c, a, b, d
(e: 334 nM, c: 188 nM, a: 126 nM, b: 48.8 nM, d: 12.1 nM)

###

# Assayed System: LATS1 (Homo sapiens)
# Test Description: RBC HotSpot kinase assay (33P-ATP, P81 filter-binding), LATS1
# Format: biochemical
# Recorded Conditions: Table 28, biochemical kinase assay; read-out: LATS1 IC50
pIC50: −log10 of the molar value.
Measurement Label: pIC50

Solved cases below.
In [3]: df
Out[3]:
                                   compound  measured_result
0  OC1(c2ccc(-c3ccnc4[nH]cc(Br)c34)cc2)CCNCC1             8.38
1  CN1CCC(O)(c2ccc(-c3ccnc4[nH]ccc34)cc2)CC1             8.54
2  OC1(c2c(F)cc(-c3ccnc4[nH]cc(F)c34)cc2F)CC2(CN(C3COC3)C2)C1             7.18

[1] Cc1cc(-c2ccnc3[nH]cc(F)c23)cc(F)c1[C@@]1(O)[C@H](C)CN(C(=O)[C@@H]2C[C@@H](O)CN2)C[C@@H]1C
[2] Cc1cc(-c2ccnc3[nH]cc(F)c23)ncc1[C@@]1(O)[C@H](C)CN(Cc2ccncc2)C[C@@H]1C
[3] CC1CC(c2ccc(-c3ccnc4[nH]ccc34)cc2)CC(C)N1 (stereo not drawn)
[4] CC(=O)N1C[C@@H](C)[C@](O)(c2c(F)cc(-c3ccnc4[nH]cc(F)c34)cc2F)[C@@H](C)C1
[5] Cc1cnc(C2(c3ccc(-c4ccnc5[nH]cc(F)c45)cc3)CCNCC2)o1
Task: Order the entries by their reported pIC50, beginning at the minimum. // respond by listing labels in the order requested
Output: 2, 3, 5, 4, 1
(2: 5.66, 3: 7.18, 5: 7.54, 4: 7.75, 1: 8.07)
